B1: Azoarcus group I ribozyme (parent)
chain: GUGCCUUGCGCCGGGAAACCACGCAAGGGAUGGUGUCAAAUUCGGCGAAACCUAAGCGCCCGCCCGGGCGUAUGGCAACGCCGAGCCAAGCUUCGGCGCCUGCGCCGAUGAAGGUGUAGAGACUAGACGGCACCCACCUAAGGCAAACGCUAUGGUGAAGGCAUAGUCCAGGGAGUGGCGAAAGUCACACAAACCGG

Variants of: B1
Test: reverse-splicing fitness (ratio to wild type); higher = more active; in vitro selection; Mg2+ level not given
quantity: reverse-splicing fitness
One number for each entry.

Worked cases, answers included:
variant-spec: A111C A120C A145G C169A U176C
reverse-splicing fitness: 0.0284
--
variant-spec: C82U A111G A120C C169G U176C
reverse-splicing fitness: 0.0156
--
variant-spec: C82A A111G A120G A145U C150A C169A U176C
reverse-splicing fitness: 0.0121
--
variant-spec: C82A A111C A120U A145C U176C
reverse-splicing fitness: 0.00818
--
variant-spec: A111C A120G
reverse-splicing fitness: 0.185

Each of the following entries comes with a recorded value; kindly state reverse-splicing fitness for each.
1. C82G A120U A145G U176A
2. C82A A111C A145G C150G C169U U176A

1. 0.0724
2. 0.0112
